# experiment: qHTS assay to identify small molecule agonists of the AP-1 signaling pathway - cell viability counter screen (AID 1159525); further: nearly all actives have a fitted effect of over 55% in size; further: potency means the concentration at half of the fitted maximal effect
# recorded.conditions: ME-180 (cervical carcinoma) AP-1-bla cells viability, ATP luminescence, 5 h; series mostly up to 76.8 µM
Inconclusive results are not listed. The source made the active and inactive calls. The call rests on the fitted dose curve.
measurement.kind: Potency

molecule: O=c1[nH]c2ccccc2n1C1CCN(CCCC(c2ccc(F)cc2)c2ccc(F)cc2)CC1
Potency: 19.5 µM (active)
//
molecule: ClC(Cl)=C(c1ccc(Cl)cc1)c1ccc(Cl)cc1
Potency: 44.7 µM (active)
//
molecule: O=c1[nH]c2ccccc2n1CCCN1CCC(n2c(=O)[nH]c3cc(Cl)ccc32)CC1
Potency: inactive
//
molecule: COC12CC[C@@]3(C[C@@H]1C(C)(O)C(C)(C)C)[C@H]1Cc4ccc(O)c5c4[C@@]3(CCN1CC1CC1)[C@H]2O5 (some centres undefined)
Potency: 54.6 µM (active)
//
molecule: N#CCCO
Potency: inactive

Ask | Supply Potency value. Item: CN(C)C(=S)[S-].CN(C)C(=S)[S-].[Cu+2]
Reply | 6.7 µM (active)

Ask | Supply Potency value. Item: COc1cc(C=O)cc2c1[C@H](COC(N)=O)[C@]1(OC(C)=O)ON2C[C@H]2[C@@H]1N2C(C)=O
Reply | inactive

Ask | Supply Potency value. Item: CC(=O)[O-].[Tl+]
Reply | inactive

Ask | Supply Potency value. Item: CCCCCCCCCCCCBr
Reply | inactive

Ask | Supply Potency value. Item: OC(Cc1ccccc1Cl)(Cn1cncn1)C1(Cl)CC1 (centres undefined)
Reply | inactive

Ask | Supply Potency value. Item: CCOP(=S)(OCC)SCS(=O)(=O)C(C)(C)C
Reply | inactive

---

# experiment: qHTS assay to identify small molecule agonists of H2AX (AID 1224845)
# recorded.conditions: CHO-K1 phospho-H2AX Ser139 HTRF, 3 h; series mostly up to 154 µM
Results filed as inconclusive are left out. Active and inactive are the calls of the source. Calls come from the whole dose curve; as a rule, active = well fitted activation curve with a large enough effect in the signal ratio in the repeat runs (not every such curve was filed as active); inconclusive = weak or mixed curves; inactive = flat fitted curve, though single readings scatter; the % refers to the signal ratio.
Outcome field: choose from T for active, F for inactive

Ask | For Cn1[nH]nnc1=S , which call appears in the assay record?
Reply | F

Ask | For Cc1cc(C(F)(C(F)(F)F)C(F)(F)F)ccc1NC(=O)c1cccc(I)c1C(=O)NC(C)(C)CS(C)(=O)=O , which call appears in the assay record?
Reply | F

Ask | For COP(=O)(CCC(=O)NCO)OC , which call appears in the assay record?
Reply | F

Ask | For Oc1ccc(I)cc1 , which call appears in the assay record?
Reply | F

Ask | For COc1ccc(/C(=C/C(=O)N2CCOCC2)c2ccc(Cl)cc2)cc1OC , which call appears in the assay record?
Reply | F

Ask | For O=[N+]([O-])c1ccc(Oc2ccc(C(F)(F)F)cc2[N+](=O)[O-])cc1 , which call appears in the assay record?
Reply | F

Ask | For Cc1cc(C)c(C2=C(OC(=O)CC(C)(C)C)C3(CCCC3)OC2=O)c(C)c1 , which call appears in the assay record?
Reply | F

Ask | For CCCCN(CCCC)C(=S)[S-].CCCCN(CCCC)C(=S)[S-].[Zn+2] , which call appears in the assay record?
Reply | F

Ask | For C=COCCCl , which call appears in the assay record?
Reply | F

Ask | For COC[C@H](C)N(C(=O)CCl)c1c(C)csc1C , which call appears in the assay record?
Reply | F

Ask | For C[C@]12CC[C@@H]3c4ccc(OC(=O)N(CCCl)CCCl)cc4CC[C@H]3[C@@H]1CC[C@@H]2O , which call appears in the assay record?
Reply | F

Ask | For COC(=O)N(C(=O)N1CO[C@@]2(C(=O)OC)Cc3cc(Cl)ccc3C2=N1)c1ccc(OC(F)(F)F)cc1 , which call appears in the assay record?
Reply | F

Ask | For CC(C)[C@H](C(=O)OC(C#N)c1cccc(Oc2ccccc2)c1)c1ccc(OC(F)F)cc1 (stereo not given in full) , which call appears in the assay record?
Reply | F

Ask | For CCc1cc(C)cc(CC)c1-c1c(OC(=O)C(C)(C)C)n2n(c1=O)CCOCC2 , which call appears in the assay record?
Reply | F

Ask | For CCCCCCCCc1ccc(O)cc1 , which call appears in the assay record?
Reply | T

Ask | For O=C(CCl)C(Cl)Cl , which call appears in the assay record?
Reply | T

Ask | For N#CCc1ccc(Cl)cc1 , which call appears in the assay record?
Reply | F

Ask | For c1ccc2c(c1)OCC(C1=NCCN1)O2 (stereo not given) , which call appears in the assay record?
Reply | T

Ask | For COc1cc(C=O)cc2c1[C@H](COC(N)=O)[C@]1(OC(C)=O)ON2C[C@H]2[C@@H]1N2C(C)=O , which call appears in the assay record?
Reply | T

Ask | For CC(O)C#N (stereo not given) , which call appears in the assay record?
Reply | F

Ask | For C=CC(=O)OCCCCOC(=O)C=C , which call appears in the assay record?
Reply | T

Ask | For N#Cc1ccccc1Cl , which call appears in the assay record?
Reply | F

Ask | For Nc1c(Oc2ccccc2)cc(O)c2c1C(=O)c1ccccc1C2=O , which call appears in the assay record?
Reply | F

Ask | For CCCN(CCC)CCc1c[nH]c2ccccc12 , which call appears in the assay record?
Reply | F

Ask | For O=[N+]([O-])c1cc([N+](=O)[O-])c2ccccc2c1 , which call appears in the assay record?
Reply | F
